Molecular target: c-Myc protein (Homo sapiens)
Construct: endogenous in cells; host or cells: HL60 cells
Sequence (P01106 whole entry): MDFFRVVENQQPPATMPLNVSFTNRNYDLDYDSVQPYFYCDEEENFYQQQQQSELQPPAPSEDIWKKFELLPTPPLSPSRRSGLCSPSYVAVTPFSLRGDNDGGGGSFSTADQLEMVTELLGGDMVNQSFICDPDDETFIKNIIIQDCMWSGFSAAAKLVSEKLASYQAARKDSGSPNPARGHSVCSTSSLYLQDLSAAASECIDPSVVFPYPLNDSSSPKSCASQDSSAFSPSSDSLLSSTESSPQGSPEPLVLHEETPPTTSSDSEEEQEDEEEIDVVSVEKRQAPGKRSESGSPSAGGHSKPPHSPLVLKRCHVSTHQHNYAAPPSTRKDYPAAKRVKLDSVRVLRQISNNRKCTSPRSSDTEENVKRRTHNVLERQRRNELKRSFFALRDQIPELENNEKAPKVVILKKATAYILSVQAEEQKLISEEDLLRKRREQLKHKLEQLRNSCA
Test: Ability of compounds to degrade c-Myc protein in HL60 cells (ELISA)
Format: cell-based
Conditions: HL-60, 1 μM compound, 24 h, read-out: HL60 cells Protein degradation rate (1 μM)
ASSAY METRIC: inhibition at 1 µM

Would you please look over these solved cases?
O=C(Cn1c2ccccc2c2cccnc21)NCCCCCCNC(=O)c1ccc2c(c1)C(=O)N(C1CCC(=O)NC1=O)C2=O (centres unmarked); 30 to 60%
O=C(Cn1c2ccccc2c2cccnc21)NCc1ccc(CCNC(=O)c2ccc3c(c2)C(=O)N(C2CCC(=O)NC2=O)C3=O)cc1 (centres unmarked); 60 to 90%
O=C(Cn1c2ccccc2c2cccnc21)NCc1ccc(CNC(=O)c2ccc3c(c2)CN(C2CCC(=O)NC2=O)C3=O)c(C(F)(F)F)c1 (centres unmarked); 60 to 90%
O=C(Cn1c2ccccc2c2cccnc21)NCc1cnc(CNC(=O)c2ccc3c(c2)C(=O)N(C2CCC(=O)NC2=O)C3=O)nc1 (centres unmarked); 60 to 90%
O=C1CCC(N2C(=O)c3ccc(C(=O)NC[C@H]4CC[C@H](CNC(=O)Nc5cccc6ccccc56)CC4)cc3C2=O)C(=O)N1 (some centres unmarked); 60 to 90%
O=C(Cn1c2ccccc2c2cccnc21)NCc1ccc(CNC(=O)c2ccc3c(c2)C(=O)N(C2CCC(=O)NC2=O)C3=O)cn1 (centres unmarked); 60 to 90%

[in] State its inhibition at 1 µM for this compound: O=C(Cc1nccc2ccccc12)NCc1ccc(CNC(=O)c2ccc3c(c2)C(=O)N(C2CCC(=O)NC2=O)C3=O)cc1 (centres unmarked)
[out] 60 to 90%

[in] Read the entry O=C1CCC(N2Cc3cc(C(=O)NCc4ccc(C5(NC(=O)Cn6c7ccccc7c7cccnc76)CC5)cc4F)ccc3C2=O)C(=O)N1 (centres unmarked) and write its reported inhibition at 1 µM.
[out] 60 to 90%

[in] Indicate the recorded inhibition at 1 µM value for this compound: O=C(Cn1c2ccccc2c2cccnc21)NC[C@H]1CC[C@H](CNC(=O)c2ccc3c(c2)C(=O)N(C2CCC(=O)NC2=O)C3=O)CC1 (some centres unmarked)
[out] 30 to 60%

[in] Using the record for CN(CCn1c2ccccc2c2cccnc21)Cc1ccc(CNC(=O)c2ccc3c(c2)C(=O)N(C2CCC(=O)NC2=O)C3=O)c(F)c1 (centres unmarked) , state its measured inhibition at 1 µM.
[out] 60 to 90%

[in] Please give the documented inhibition at 1 µM of O=C(Cc1ccccc1Cl)NCc1ccc(CNC(=O)c2ccc3c(c2)C(=O)N(C2CCC(=O)NC2=O)C3=O)cc1 (centres unmarked)
[out] 60 to 90%

[in] Quick one: give measured inhibition at 1 µM for O=C(Cc1nccc2ccccc12)NCc1ccc(CNCc2ccc3c(c2)C(=O)N(C2CCC(=O)NC2=O)C3=O)cc1 (centres unmarked)
[out] 60 to 90%

[in] Please supply the value of reported inhibition at 1 µM for the item COc1cc(CNC(=O)Cc2cccc3ccccc23)ccc1CNC(=O)c1ccc2c(c1)C(=O)N(C1CCC(=O)NC1=O)C2=O (centres unmarked)
[out] 60 to 90%

[in] Give the reported value of inhibition at 1 µM for this record: O=C1CCC(N2C(=O)c3ccc(C(=O)NC[C@H]4CC[C@H](CNC(=O)Nc5cccc6ncccc56)CC4)cc3C2=O)C(=O)N1 (some centres unmarked)
[out] 10 to 30%
